Tested on: RXF 393 renal
Test: NCI tumour cell line growth inhibition, 48 h; in the data active = GI50 below about 0.43 µM; inactive = the rest
Select the matching outcome among active, inactive

-- ask Tell me the assay call for "N.N.NCCCCCCN.O=C([O-])CC(=O)[O-].O=C([O-])CC(=O)[O-].[Pt+4].[Pt+4]" please.
-- reply inactive

-- ask // same read-out, input: "CCCOc1nc(SCCC)nc2c1cnn2-c1ccccc1"
-- reply inactive

-- ask Likewise for COC(=O)C1=C(OC(=O)c2ccc(Cl)cc2)C(C(=O)OC)[C@@]2(O)[C@@H](C(=O)OC)C(c3ccccc3Cl)C[C@@H]1[C@@H]2C(=O)OC (some centres undefined) ?
-- reply inactive

-- ask Next entry: "O=C(CN1CCN(c2ccccc2)CC1)N1CCN(c2nnc(-c3ccc(Cl)cc3)c(-c3ccc(Cl)cc3)n2)CC1"
-- reply inactive

-- ask Same lookup for COc1cc2c3c(n(C)c(=O)c2cc1OC)-c1cc2c(cc1/C3=C\C(N)CN)OCO2 (centres undefined) , please.
-- reply inactive

-- ask Repeat for the following molecule: CN(C)CC1CCCCCC(CN(C)C)C1=O (centres undefined)
-- reply inactive

-- ask Now the same for "CN(C)c1ccc(C(=C2C=CC(=[N+](C)C)C=C2)c2ccc(N(C)C)cc2)cc1"
-- reply active

-- ask Next entry: "CC1(C)CC[C@]2(C(=O)N3CCOCC3)CC[C@]3(C)C(=CC[C@@H]4[C@@]5(C)C/C(=C/c6ccncc6)C(=O)C(C)(C)[C@@H]5CC[C@]43C)[C@@H]2C1"
-- reply inactive

-- ask Check OCC1OC(n2cnc3c(=S)nc[nH]c32)C(O)C1O (centres undefined) too.
-- reply inactive

###

Tested on: SK-MEL-2 melanoma
Assay: NCI tumour cell line growth inhibition, 48 h
quantity kind: TGI

-- ask Requested field: TGI. Item: CC(=O)N(CN1C(=O)CCC1C(=O)O)c1cccc(O)c1 (stereo unspecified)
-- reply > 100 µM

-- ask Request: "CCOc1ccccc1/C=N\N=C(\N)N/N=C/c1ccccc1OCC"
-- reply > 100 µM

-- ask Item: "CCOP(=O)(CN=C(c1ccccc1)c1ccccc1)OCC"
-- reply > 100 µM

-- ask // repeat for "CCc1nnc(-c2nsc3ccccc23)s1" and report
-- reply > 100 µM

-- ask What would you report for "CSc1ccccc1C#Cc1ccccc1C#CCCCCO" ?
-- reply 35.4 µM

-- ask Also check "CCOC(=O)C1=C(Nc2cccc3ccccc23)OC/C1=N\NC(=O)c1ccccc1O"
-- reply > 100 µM

###

System: DU-145 prostate
Experiment: NCI tumour cell line growth inhibition, 48 h
quantity kind: TGI (µM)
Express the result in µM but write the number alone.

-- ask Quick one: TGI of "CCN(CC)c1ccc(C(=N)c2ccc(N(C)C)cc2)cc1" ?
-- reply 7.18

-- ask Similarly, "O=C1C(=C(I)I)c2ccccc2-c2ccccc21" ?
-- reply 11.2

-- ask Moving on to "CN(CCCN(C)CCc1ccc(Cl)c(Cl)c1)CCCN1CCCC1"
-- reply 21.4

-- ask Also check "CC12c3c4cc(Br)cc3Oc3cc(Br)cc(c31)Oc1cc(Br)cc(c12)O4"
-- reply 49.1

-- ask Another: "CSC1(SC2=NCCN2)SC2(NCCN2)S1"
-- reply 28.2

###

Could you please report measured TGI for the items listed next?
Test system: UACC-257 melanoma
Test: NCI tumour cell line growth inhibition, 48 h
# number only, unit µM dropped from output

-- ask What TGI value was documented for this compound, "CC(=O)O[C@H]1CC[C@@]2(C)[C@@H](CC[C@@H]3[C@@H]2CC[C@]2(C)C=C(C=O)C[C@@H]32)C1" ?
-- reply 26.3

-- ask Moving on to "O=C(N/N=C/c1cc([N+](=O)[O-])ccc1O)c1cccc2ccccc12"
-- reply 26.9

-- ask How about CCCCCC[C@H]1C(=O)O[C@H](C)[C@H](NC(=O)c2cccc(NC=O)c2OC)C(=O)O[C@@H](C)[C@@H]1OC(=O)CC(C)C (tested in a mixture with another compound) ?
-- reply 55.7

-- ask Moving on to the next compound: "c1ccc2cc(CNCCOCCOCCNCc3ccc4ccccc4c3)ccc2c1"
-- reply 2.96

-- ask Now the compound "C/C(=N\NC(=S)Nc1ccc(C)cc1)c1nc2ncccc2[nH]1"
-- reply 9.48

-- ask Proceed to "Cc1ccc2c(C)c3ccc4ccccc4c3c[n+]2c1"
-- reply 33.7

-- ask Now consider "CCN(CC)c1ccc(C(=N)c2ccc(N(C)C)cc2)cc1" and answer again.
-- reply 5.11

-- ask Same read-out for Nc1nc(N)c2[nH]cnc2n1 (tested in a mixture with another compound) ?
-- reply 55.2

-- ask Okay, and "O=C(COc1cccc(/C=C2\COc3ccc(Cl)cc3C2=O)c1)c1ccc(Cl)cc1" ?
-- reply 33.4

-- ask Now consider "C=C=C(Sc1ccccc1)C(C)(C)OC(C)=O" and answer again.
-- reply 32.4
